Biological target: hGK (Homo sapiens, UniProt P35557)
Sequence (P35557 whole entry): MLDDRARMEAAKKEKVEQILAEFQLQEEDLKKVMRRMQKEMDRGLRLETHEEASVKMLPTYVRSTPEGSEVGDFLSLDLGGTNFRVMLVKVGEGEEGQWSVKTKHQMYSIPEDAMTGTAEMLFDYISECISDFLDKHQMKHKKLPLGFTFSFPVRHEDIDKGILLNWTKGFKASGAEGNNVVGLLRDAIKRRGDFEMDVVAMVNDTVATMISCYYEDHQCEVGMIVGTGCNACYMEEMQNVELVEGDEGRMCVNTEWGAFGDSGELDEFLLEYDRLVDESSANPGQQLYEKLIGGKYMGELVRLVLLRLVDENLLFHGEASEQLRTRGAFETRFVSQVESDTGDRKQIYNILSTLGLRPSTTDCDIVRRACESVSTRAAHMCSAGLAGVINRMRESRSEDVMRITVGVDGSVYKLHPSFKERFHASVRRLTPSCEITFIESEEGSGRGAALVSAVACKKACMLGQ
Test: Glucokinase Activation Screening Assay (coupled enzyme assay with PK/LDH)
Details: 2 mM glucose
Protocol: Glucokinase Activation Screening Assay GK activity (human or rat enzyme) is measured by a coupled enzyme assay using pyruvate kinase (PK) and lactate dehydrogenase (LDH) as coupling enzymes. GK activity is calculated from the decline in NADH monitored photometrically with a microtiter plate (MTP) reader at 340 nm. For screening purposes, the GK assay is routinely run in a 384-MTP format, in a total volume of 33 μl/well. […]
measurement.type: EC50 (µM)
One number for each entry, in µM.

Sample answers from the record:
{"compound.structure": "CCCc1cc(C(=O)Nc2nc(C)cs2)cs1", "unit.string": "µM", "EC50": 9.3}
{"compound.structure": "CCCOc1sc(C(=O)Nc2nccs2)cc1S(C)(=O)=O", "unit.string": "µM", "EC50": 10}
{"compound.structure": "CCCc1cc(C(=O)Nc2nccs2)cs1", "unit.string": "µM", "EC50": 10}

Attention now shifts to the item below.
hGK (Homo sapiens, UniProt P35557) / EC50 / CCCc1cc(C(=O)Nc2nc(C(=O)O)cs2)cs1 : value?
9
